Values from ChEMBL document CHEMBL1121738

# Assay details: Inhibitory activity against phosphodiesterase using 1 uM cyclic-AMP as substrate in bovine heart
# Set-up: species or system Bos taurus
# Condition description: read-out: I50
pIC50: −log10 of the molar value.
Quantity: pIC50

Sample answers from the record:
What does the record list as pIC50 for O=C1CC(=O)[n+]2ccsc2N1Cc1cccc(Cl)c1 ?
3.51

What does the record list as pIC50 for CCC1C(=O)N2C=CC=CC2=[N+](CC2CCCCC2)C1=O (stereo unspecified) ?
3.68

What does the record list as pIC50 for CC1C(=O)N2C=CSC2=[N+](CC2CC2)C1=O (stereo unspecified) ?
3.50

[1] O=C1CC(=O)[N+](CC2CC2)=C2SCCN12
[2] CC1C(=O)N2CCSC2=[N+](CC2CC2)C1=O (stereo unspecified)
[3] CCC1C(=O)N2C=CSC2=[N+](Cc2ccc3c(c2)OCO3)C1=O (stereo unspecified)
[4] CCC1C(=O)N2C=CSC2=[N+](Cc2ccccc2)C1=O (stereo unspecified)
Hey, can you sort those compounds up there by pIC50, smallest first? Please respond with the labels ordered as the question requires.
1, 2, 4, 3
(1: 2.69, 2: 2.90, 4: 3.37, 3: 3.58)

[1] CC[N+]1=C2SC=NN2C(=O)C(C)C1=O (stereo unspecified)
[2] CCC1C(=O)N2C=CSC2=[N+](Cc2ccccc2Cl)C1=O (stereo unspecified)
[3] CC1C(=O)N2N=CSC2=[N+](Cc2ccccc2)C1=O (stereo unspecified)
[4] CC[N+]1=C2SC=NN2C(=O)C(Cc2ccccc2)C1=O (stereo unspecified)
List these items ordered by pIC50, big to small. Please respond with the labels ordered as the question requires.
4, 3, 2, 1

[I] CCC1C(=O)N(CC)c2scc[n+]2C1=O (stereo unspecified)
[II] COc1ccc(C[N+]2=C3SC=CN3C(=O)C(C)C2=O)cc1 (stereo unspecified)
[III] CCC1C(=O)N2C=CSC2=[N+](Cc2ccc(Cl)cc2)C1=O (stereo unspecified)
[IV] CCCC1C(=O)N2N=CN(C)C2=[N+](C)C1=O (stereo unspecified)
[V] CCC1C(=O)N2C=CSC2=[N+](Cc2cc(OC)cc(OC)c2)C1=O (stereo unspecified)
List these items ordered by pIC50, big to small. Please respond with the labels ordered as the question requires.
III, V, II, I, IV
(III: 3.72, V: 3.49, II: 3.27, I: 3.07, IV: 2.77)

###

# Species on record: Bos taurus
# Assay details: Relative potency of compound to that of theophylline against phosphodiesterase from bovine heart
Quantity: Relative potency

Sample answers from the record:
What does the record list as Relative potency for CC[N+]1=C2SC=CN2C(=O)CC1=O ?
0.3

What does the record list as Relative potency for CC[N+]1=C2SC=NN2C(=O)CC1=O ?
0.5

What does the record list as Relative potency for O=C1CC(=O)[N+](CC2CC2)=C2SCCN12 ?
0.1

What does the record list as Relative potency for CCC1C(=O)N2C=CSC2=[N+](Cc2cc(OC)cc(OC)c2)C1=O (configuration not stated) ?
1.3

What does the record list as Relative potency for CCC1C(=O)N2C=CSC2=[N+](Cc2ccc3c(c2)OCO3)C1=O (configuration not stated) ?
1.6

What does the record list as Relative potency for CCC1C(=O)N2C=CSC2=[N+](CC2CC2)C1=O (configuration not stated) ?
0.7

What does the record list as Relative potency for CC[N+]1=C2SC=CN2C(=O)C(Cc2ccccc2)C1=O (configuration not stated) ?
2.5

[1] CC1C(=O)N2N=CSC2=[N+](Cc2ccccc2)C1=O (configuration not stated)
[2] CCC1C(=O)N2C=CSC2=[N+](Cc2ccc(-c3ccccc3)cc2)C1=O (configuration not stated)
[3] CC[N+]1=C2SC=NN2C(=O)C(Cc2ccccc2)C1=O (configuration not stated)
[4] CCC1C(=O)N2N=CSC2=[N+](CC)C1=O (configuration not stated)
[5] CC[N+]1=C2SC=CN2C(=O)C(C)C1=O (configuration not stated)
List these items ordered by Relative potency, big to small. Please respond with the labels ordered as the question requires.
2, 3, 1, 4, 5
